Just for reference, PubChem BioAssay AID1963870 is where these values come from.

system: 292921-168-R-J2-PDC KRAS tumor spheroid viability; test: Anticancer human tumor 292921-168-R-J2-PDC patient-derived pancreatic carcinoma cell line growth inhibition [KRAS2]; conditions: second compound 0.316 µM; first compound 0.316 µM; active compounds read low; spheroids with HUVEC and MSC;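 further: drug exposure lasted seven days after spheroids formed for three days; percent of DMSO vehicle control viability which is 100%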
For each of the compounds below, state its viability, T/C.
Give bare numbers, in %.

[
  {
    "compound": "COc1cc(Nc2ncc3c(n2)-c2ccc(Cl)cc2C(c2c(F)cccc2OC)=NC3)ccc1C(=O)O + CC1OCC2(CCN(c3cnc(Sc4ccnc(N)c4Cl)c(N)n3)CC2)C1N",
    "test-target": "292921-168-R-J2-PDC KRAS tumor spheroid viability",
    "viability, T/C / %": 22.8
  },
  {
    "compound": "CC(C)NCC(C(=O)N1CCN(c2ncnc3c2C(C)CC3O)CC1)c1ccc(Cl)cc1 (stereo unspecified) + C=CC(=O)N1CCN(c2nc(OCC3CCCN3C)nc3c2CCN(c2cccc4cccc(C)c24)C3)CC1CC#N",
    "test-target": "292921-168-R-J2-PDC KRAS tumor spheroid viability",
    "viability, T/C / %": 65.1
  },
  {
    "compound": "COC(=O)c1ccc2c(C(=Nc3ccc(N(C)C(=O)CN4CCN(C)CC4)cc3)c3ccccc3)c(O)[nH]c2c1 + CC1OCC2(CCN(c3cnc(Sc4ccnc(N)c4Cl)c(N)n3)CC2)C1N",
    "test-target": "292921-168-R-J2-PDC KRAS tumor spheroid viability",
    "viability, T/C / %": 46.1
  },
  {
    "compound": "Cn1nccc1Nc1nccc(-c2cc3c(s2)C(C)(C)N(CCN2CCOCC2)C3=O)n1 + COc1cc2nc(C)nc(NC(C)c3cc(N)cc(C(F)(F)F)c3)c2cc1OC1CCOC1",
    "test-target": "292921-168-R-J2-PDC KRAS tumor spheroid viability",
    "viability, T/C / %": 16.4
  },
  {
    "compound": "CC1COCCN1c1cc(-c2ccnn2C)c2ccnc(-c3ccn[nH]3)c2n1 (stereo unspecified) + CC1OCC2(CCN(c3cnc(Sc4ccnc(N)c4Cl)c(N)n3)CC2)C1N",
    "test-target": "292921-168-R-J2-PDC KRAS tumor spheroid viability",
    "viability, T/C / %": 13
  }
]

Dear reader, for each entry below, please note its viability, T/C.
1. CC1(C)CCC(CN2CCN(c3ccc(C(=O)NS(=O)(=O)c4ccc(NCC5CCOCC5)c([N+](=O)[O-])c4)c(Oc4cnc5[nH]ccc5c4)c3)CC2)=C(c2ccc(Cl)cc2)C1 + C=CC(=O)N1CCN(c2nc(OCC3CCCN3C)nc3c2CCN(c2cccc4cccc(C)c24)C3)CC1CC#N
2. COc1cc(Nc2ncc3c(n2)-c2ccc(Cl)cc2C(c2c(F)cccc2OC)=NC3)ccc1C(=O)O + COc1cc2nc(C)nc(NC(C)c3cc(N)cc(C(F)(F)F)c3)c2cc1OC1CCOC1
3. O=C(c1cc(Cc2n[nH]c(=O)c3ccccc23)ccc1F)N1CCN(C(=O)C2CC2)CC1 + C=CC(=O)N1CCN(c2nc(OCC3CCCN3C)nc3c2CCN(c2cccc4cccc(C)c24)C3)CC1CC#N
4. COC(=O)c1ccc2c(C(=Nc3ccc(N(C)C(=O)CN4CCN(C)CC4)cc3)c3ccccc3)c(O)[nH]c2c1 + C=CC(=O)N1CCN(c2nc(OCC3CCCN3C)nc3c2CCN(c2cccc4cccc(C)c24)C3)CC1CC#N
5. CC1OCC2(CCN(c3cnc(Sc4ccnc(N)c4Cl)c(N)n3)CC2)C1N (stereo unspecified) + CNCc1ccccc1-c1csc(C(C)Nc2nc(C)nc3cc(OC)c(OC)cc23)c1

Result:
1. 83.2
2. 27.4
3. 55.2
4. 13.4
5. 44.7

Query: Short answer please: viability, T/C, 292921-168-R-J2-PDC KRAS tumor spheroid viability, entry CC1COCCN1c1cc(-c2ccnn2C)c2ccnc(-c3ccn[nH]3)c2n1 (stereo unspecified) + C=CC(=O)N1CCN(c2nc(=O)n(-c3c(C)ccnc3C(C)C)c3nc(-c4c(O)cccc4F)c(F)cc23)C(C)C1
Result: 14.6
